- method: Pharmacokinetic study of AWRK6 in rats after intraperitoneal or intravenous injection, plasma LC-MS/MS
- Type: in vivo, rat
- assay-setup: rat, ip, 4.7 mg/kg; male Sprague Dawley rats, single i.p. 4.700 mg/kg, plasma, LC-MS/MS, mean ± SD, n = 6
- Protocol: The samples were analyzed on a LC-MS/MS system consisting of an Agilent 1290 Infinity II UHPLC System coupled with an Agilent 6460 Triple Quadrupole Mass Spectrometer with an electrospray ionisation source (ESI). […] SPF-grade male Sprague Dawley rats (280–320 g, 8 weeks old) were purchased from Liaoning Changsheng Biotechology (Liaoning, China). […] The obtained data were analyzed using DAS 2.0 software (Anhui Provincial Center for Drug Clinical Evaluation). […]
No end group written: not given here.
reported-property: Tmax

[
  {
    "substance": "SWVGKHGKKFGLKKHKKH-NH2 (C-terminus assumed) [AWRK6]",
    "measured-result": "1.25 h"
  }
]

---

- method: Pharmacokinetic study of AWRK6 in rats after intraperitoneal or intravenous injection, plasma LC-MS/MS
- Type: in vivo, rat
- assay-setup: rat, plasma, ip, 2.35 mg/kg; male Sprague Dawley rats, i.p. 2.350 mg/kg versus i.v. 4.700 mg/kg, from AUC; read-out: F (absolute bioavailability)
No end group written: not given here.
reported-property: bioavailability (%)

[
  {
    "substance": "SWVGKHGKKFGLKKHKKH-NH2 (C-terminus assumed) [AWRK6]",
    "reported-property": "bioavailability",
    "measured-result": 48.8
  }
]

---

- method: Pharmacokinetic study of AWRK6 in rats after intraperitoneal or intravenous injection, plasma LC-MS/MS
- Assay type: in vivo, rat
- assay-setup: rats, two-compartment model, weight coefficient of 1, DAS 2.0
No end group written: not given here.
reported-property: transport rate constant K12 (h⁻¹)

[
  {
    "substance": "SWVGKHGKKFGLKKHKKH-NH2 (C-terminus assumed) [AWRK6]",
    "measured-result": 2.55
  }
]
